From: ChEMBL document CHEMBL3763025

test method notes: Cytotoxicity against human Huh7.5 cells assessed as cell viability after 42 hrs by MTS assay
Type: cell-based, Huh-7
measurement label: CC50 at 42 h

The following compounds have reported results that may help.
O=C(N/N=C/c1cccc2ccccc12)c1cc(-c2ccc(F)cc2F)ccc1O    > 200 µM
O=C(N/N=C/c1cccnc1)c1cc(-c2ccc(F)cc2F)ccc1O    > 200 µM
O=C(N/N=C/c1cccc(C(F)(F)F)c1)c1cc(-c2ccc(F)cc2F)ccc1O    < 50 µM
O=C(N/N=C/c1cccc(Oc2ccccc2)c1)c1cc(-c2ccc(F)cc2F)ccc1O    < 50 µM
N#Cc1ccc(/C=N/NC(=O)c2cc(-c3ccc(F)cc3F)ccc2O)cc1    > 200 µM

Lookup: Quick one: give measured CC50 at 42 h for O=C(N/N=C/c1c(F)cccc1Cl)c1cc(-c2ccc(F)cc2F)ccc1O
Found: > 50 µM
